meta.source: the NIST ThermoML archive (doi:10.1016/j.fluid.2013.11.026)

assay: refractive index (Na D-line) (dimensionless); conditions: 291.15 K; 101.33 kPa; Liquid; Standard Abbe refractometry
test.readout: refractive index

{"molecule": "CCOC=O [ethyl methanoate]", "refractive index": 1.3614}
{"molecule": "COC=O [methyl methanoate]", "refractive index": 1.3452}
{"molecule": "CCCCOC=O [butyl methanoate]", "refractive index": 1.3904}
{"molecule": "CCCOC=O [propyl methanoate]", "refractive index": 1.3778}
{"molecule": "CCCCC [pentane]", "refractive index": 1.3589}

###

details: 291.15 K; 101.33 kPa; Liquid; Vibrating tube method
test.readout: mass density (kg/m3)

Here's what some known entries look like.
{"compound": "CCCOC=O [propyl methanoate]", "measured.number": 907.97}
{"compound": "CCCCOC=O [butyl methanoate]", "measured.number": 895.86}
{"compound": "COC=O [methyl methanoate]", "measured.number": 977.21}

(I) CCOC=O [ethyl methanoate]
(II) CCCCC
Hello, I am sorting some records. Could you say if I or II has the smaller mass density value? # answer = label of selected item II
(II: 627.86 kg/m3, I: 923.4 kg/m3)

###

details: 298.15 K; 101.33 kPa; Liquid; Vibrating tube method
test.readout: mass density (kg/m3)

Here's what some known entries look like.
{"compound": "COC=O [methyl methanoate]", "measured.number": 966.54}
{"compound": "CCOC=O [ethyl methanoate]", "measured.number": 914.35}
{"compound": "CCCCOC=O [butyl methanoate]", "measured.number": 888.47}

(A) CCCCC
(B) CCCOC=O [propyl methanoate]
Hello, I am sorting some records. Could you say if A or B has the smaller mass density value? # answer = label of selected item A
(A: 620.89 kg/m3, B: 899.86 kg/m3)

###

assay: refractive index (Na D-line) (dimensionless); settings: 298.15 K; 101.33 kPa; Liquid; Standard Abbe refractometry
test.readout: refractive index

{"molecule": "COC=O [methyl methanoate]", "test.readout": "refractive index", "measured.number": 1.3415}
{"molecule": "CCCOC=O [propyl methanoate]", "test.readout": "refractive index", "measured.number": 1.3752}
{"molecule": "CCCCOC=O [butyl methanoate]", "test.readout": "refractive index", "measured.number": 1.3872}
{"molecule": "CCOC=O [ethyl methanoate]", "test.readout": "refractive index", "measured.number": 1.358}
{"molecule": "CCCCC [pentane]", "test.readout": "refractive index", "measured.number": 1.3545}
